Kindly supply the reported GI50 values for the records listed here.
# System: SNB-19 CNS
# ASSAY_METHOD_TEXT: NCI tumour cell line growth inhibition, 48 h

Consider the reported GI50 for these compounds:
COMPOUND: CCCCN1C(=O)/C(=c2\sc3n(c2=O)C2C(NN=3)N(CC)C(=O)N2CC)c2ccccc21 (stereo unspecified)
ASSAYED_TARGET: SNB-19 CNS
GI50: 1610 nM
//
COMPOUND: COc1cc(NC(C)CCCNC(C)C)c2ncccc2c1OC (stereo unspecified)
ASSAYED_TARGET: SNB-19 CNS
GI50: > 100000 nM
//
COMPOUND: CC1=C(C#N)C(/C=C(\Cl)c2ccc(F)cc2)C(C#N)=C(C)N1
ASSAYED_TARGET: SNB-19 CNS
GI50: > 100000 nM
//
COMPOUND: COc1cc(CN(c2ccc(C)cc2)C2OC(=O)c3ccccc32)cc(OC)c1OC (stereo unspecified)
ASSAYED_TARGET: SNB-19 CNS
GI50: 689 nM

// batch mode: one GI50 value per listed entry
1. Cc1noc(C)c1-c1cnc2c(-c3ccc(C(=O)O)cc3)cn([C@@H](C)c3ccccn3)c2c1
2. O=C(Nc1ccc2c(c1)OCCO2)C(=O)c1c[nH]c2ccccc12

Output:
1580 nM
2880 nM
